This section presents molecules with their documented relative viability values.
- Tested on: NCI-H1755
- protocolSummary: relative viability (nuclei count vs DMSO), 5 days (fraction); higher = more cells survive
- experimentalParameters: first compound 0.4 µM

molecule	targetEntity	relative viability
Cc1sc2c(c1C)C(c1ccc(Cl)cc1)=N[C@@H](CC(=O)OC(C)(C)C)c1nnc(C)n1-2 [JQ1] + N=C(N)NC(=N)NCCc1ccccc1 [Phenformin] (partner 250 µM)	NCI-H1755	0.506
Cc1sc2c(c1C)C(c1ccc(Cl)cc1)=N[C@@H](CC(=O)OC(C)(C)C)c1nnc(C)n1-2 [JQ1] + CC(=O)c1c(C)c2cnc(Nc3ccc(N4CCNCC4)cn3)nc2n(C2CCCC2)c1=O [Palbociclib] (partner 0.5 µM)	NCI-H1755	0.416
Cc1sc2c(c1C)C(c1ccc(Cl)cc1)=N[C@@H](CC(=O)OC(C)(C)C)c1nnc(C)n1-2 [JQ1] + O=C(CCCCCCC(=O)Nc1ccccc1)NO [Vorinostat] (partner 1 µM)	NCI-H1755	0.693
Cc1sc2c(c1C)C(c1ccc(Cl)cc1)=N[C@@H](CC(=O)OC(C)(C)C)c1nnc(C)n1-2 [JQ1] + CC1(C)CCC(c2ccc(Cl)cc2)=C(CN2CCN(c3ccc(C(=O)NS(=O)(=O)c4ccc(N[C@H](CCN5CCOCC5)CSc5ccccc5)c(S(=O)(=O)C(F)(F)F)c4)cc3)CC2)C1 [Navitoclax] (partner 0.5 µM)	NCI-H1755	0.922
Cc1sc2c(c1C)C(c1ccc(Cl)cc1)=N[C@@H](CC(=O)OC(C)(C)C)c1nnc(C)n1-2 [JQ1] + CCNC(=O)c1noc(-c2cc(C(C)C)c(O)cc2O)c1-c1ccc(CN2CCOCC2)cc1 [Luminespib] (partner 0.01 µM)	NCI-H1755	0.539

* * *

- Tested on: HCC-827
- protocolSummary: relative viability (nuclei count vs DMSO), 5 days (fraction); higher = more cells survive
- experimentalParameters: first compound 0.005 µM
// returns F unless relative viability is strictly below 0.5, in which case T

compound	class
COc1cc2nccc(Oc3ccc(NC(=O)Nc4cc(C)on4)c(Cl)c3)c2cc1OC [Tivozanib] + NC(=O)Nc1cc(-c2cccc(F)c2)sc1C(=O)N[C@H]1CCCNC1 [AZD7762] (partner 0.2 µM)	T
Nc1ccn([C@@H]2O[C@H](CO)[C@@H](O)[C@@H]2O)c(=O)n1 [Cytarabine] + C[C@]1(O)C[C@@H](c2nc(-c3ccc4ccc(-c5ccccc5)nc4c3)c3c(N)nccn32)C1 [Linsitinib] (partner 1 µM)	F
COc1cc2nccc(Oc3ccc(NC(=O)Nc4cc(C)on4)c(Cl)c3)c2cc1OC [Tivozanib] + CS(=O)(=O)CCNCc1ccc(-c2ccc3ncnc(Nc4ccc(OCc5cccc(F)c5)c(Cl)c4)c3c2)o1 [Lapatinib] (partner 2 µM)	T
Nc1ccn([C@@H]2O[C@H](CO)[C@@H](O)[C@@H]2O)c(=O)n1 [Cytarabine] + CS(=O)(=O)N1CCN(Cc2cc3nc(-c4cccc5[nH]ncc45)nc(N4CCOCC4)c3s2)CC1 [Pictilisib] (partner 1 µM)	F
COc1cc2nccc(Oc3ccc(NC(=O)Nc4cc(C)on4)c(Cl)c3)c2cc1OC [Tivozanib] + COc1cccc2cc(-c3nc([C@H]4CC[C@H](C(=O)O)CC4)n4ncnc(N)c34)[nH]c12 [OSI-027] (partner 0.5 µM)	F
Nc1ccn([C@@H]2O[C@H](CO)[C@@H](O)[C@@H]2O)c(=O)n1 [Cytarabine] + CC(=O)c1c(C)c2cnc(Nc3ccc(N4CCNCC4)cn3)nc2n(C2CCCC2)c1=O [Palbociclib] (partner 0.5 µM)	T
COc1cc2nccc(Oc3ccc(NC(=O)Nc4cc(C)on4)c(Cl)c3)c2cc1OC [Tivozanib] + COc1cc2c(Oc3ccc(NC(=O)C4(C(=O)Nc5ccc(F)cc5)CC4)cc3F)ccnc2cc1OCCCN1CCOCC1 [Foretinib] (partner 0.25 µM)	F
COc1cc2nccc(Oc3ccc(NC(=O)Nc4cc(C)on4)c(Cl)c3)c2cc1OC [Tivozanib] + CC(=O)Nc1cccc(-n2c(=O)n(C3CC3)c(=O)c3c(Nc4ccc(I)cc4F)n(C)c(=O)c(C)c32)c1 [Trametinib] (partner 0.02 µM)	F
COc1cc2nccc(Oc3ccc(NC(=O)Nc4cc(C)on4)c(Cl)c3)c2cc1OC [Tivozanib] + CC(C)C[C@H](NC(=O)[C@H](Cc1ccccc1)NC(=O)c1cnccn1)B(O)O [Bortezomib] (partner 0.002 µM)	F
COc1cc2nccc(Oc3ccc(NC(=O)Nc4cc(C)on4)c(Cl)c3)c2cc1OC [Tivozanib] + Cc1nc(Nc2ncc(C(=O)Nc3c(C)cccc3Cl)s2)cc(N2CCN(CCO)CC2)n1 [Dasatinib] (partner 0.075 µM)	T
COc1cc2nccc(Oc3ccc(NC(=O)Nc4cc(C)on4)c(Cl)c3)c2cc1OC [Tivozanib] + N=C(N)NC(=N)NCCc1ccccc1 [Phenformin] (partner 250 µM)	T

Provenance of the data: the supplement of paper PMC10307832
